Assay: recombinant barcode read abundance after kanamycin selection (control-corrected) (log10(CPM+1)); higher = more efficient recombination; sequences stand for … in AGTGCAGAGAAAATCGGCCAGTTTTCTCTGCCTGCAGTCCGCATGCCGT…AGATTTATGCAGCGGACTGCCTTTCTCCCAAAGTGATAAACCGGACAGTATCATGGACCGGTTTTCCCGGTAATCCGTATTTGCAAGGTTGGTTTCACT; site = the 11-nt target
# label = yes if recombinant barcode read abundance (log10) >= 0.2 else no

- sequenceText: "ACATGTCCTTGGGTTCTAACCTGTTGCAT (site ACATGTCCTAT)"
  labelClass: "yes"
- sequenceText: "CGTTCAACTTGGGTTCTAACCTGTTGCCT (site CGTTCTACTAG)"
  labelClass: "no"
- sequenceText: "CTTCGCACTTGGGTTCTAACCTGTTGCCT (site CCTCGCACTAG)"
  labelClass: "no"
- sequenceText: "AGTAGTGCTTGGGTTCTAACCTGTTGCCT (site AATAGTGCTAG)"
  labelClass: "no"
- sequenceText: "CTTCGAGCTTGGGTTCTAACCTGTTGCTG (site CTTCGAGCTCA)"
  labelClass: "yes"
- sequenceText: "GCCTGCCCTTGGGTTCTAACCTGTTGCTG (site GCCTGCCCTCA)"
  labelClass: "yes"
- sequenceText: "CTTGGGCCTTGGGTTCTAACCTGTTGCCT (site CGTGGGCCTAG)"
  labelClass: "no"
- sequenceText: "GGTACGCCTTGGGTTCTAACCTGTTGCGT (site GGTACGCCTAC)"
  labelClass: "yes"
- sequenceText: "GCGGGTCCTTGGGTTCTAACCTGTTGCCT (site GCAGGTCCTAG)"
  labelClass: "yes"
- sequenceText: "TGTCTGTCTTGGGTTCTAACCTGTTGCTT (site TGTCTGTCTAA)"
  labelClass: "no"
- sequenceText: "AGCAGAGCTTGGGTTCTAACCTGTTGCAG (site AGCAGAGCTCC)"
  labelClass: "yes"
- sequenceText: "ACCTGTGCTTGGGTTCTAACCTGTTGCCT (site ACCTGTGCTAG)"
  labelClass: "yes"
- sequenceText: "ACGAACCCTTGGGTTCTAACCTGTTGCCT (site ACGAACCCTAG)"
  labelClass: "yes"
- sequenceText: "GCCATAACTTGGGTTCTAACCTGTTGCCT (site GCCATGACTAG)"
  labelClass: "yes"
- sequenceText: "TTCTACACTTGGGTTCTAACCTGTTGCAT (site TTCTACACTAT)"
  labelClass: "yes"
- sequenceText: "GCGCTCCCTTGGGTTCTAACCTGTTGCCT (site GCGCTCCCTAG)"
  labelClass: "yes"
- sequenceText: "GCCGAAACTTGGGTTCTAACCTGTTGCCT (site GCCGAGACTAG)"
  labelClass: "no"
- sequenceText: "CTATTCTCTTGGGTTCTAACCTGTTGCCT (site CTATTCACTAG)"
  labelClass: "yes"
- sequenceText: "ACATGTCCTTGGGTTCTAACCTGTTGCAT (site ACATGTCCTAC)"
  labelClass: "yes"
- sequenceText: "GTGTCTCCTTGGGTTCTAACCTGTTGCGA (site GTGTCTCCTTC)"
  labelClass: "yes"
- sequenceText: "AAGTGGACTTGGGTTCTAACCTGTTGCCT (site AAGTCGACTAG)"
  labelClass: "no"
- sequenceText: "GTTAGAGCTTGGGTTCTAACCTGTTGCCT (site GTTAGAGCTAG)"
  labelClass: "yes"
- sequenceText: "GAGAAATCTTGGGTTCTAACCTGTTGCCT (site GAGAGATCTAG)"
  labelClass: "no"
- sequenceText: "GAGTCTCCTTGGGTTCTAACCTGTTGCGG (site GAGTCTCCTCC)"
  labelClass: "yes"
- sequenceText: "TCCTTCACTTGGGTTCTAACCTGTTGCCT (site TCGTTCGCTAG)"
  labelClass: "no"
- sequenceText: "ATGGTCCCTTGGGTTCTAACCTGTTGCCT (site ATGGTCCCTAG)"
  labelClass: "yes"
- sequenceText: "TCTTGGACTTGGGTTCTAACCTGTTGCTA (site TCTTGGACTTA)"
  labelClass: "no"
- sequenceText: "AGGCTGCCTTGGGTTCTAACCTGTTGCCT (site AGGCTGACTAG)"
  labelClass: "no"
- sequenceText: "CTATTTGCTTGGGTTCTAACCTGTTGCAA (site CTATTTGCTTT)"
  labelClass: "no"
- sequenceText: "TTGGATCCTTGGGTTCTAACCTGTTGCCT (site TTGGATCCTAA)"
  labelClass: "yes"
- sequenceText: "GTCCGTCCTTGGGTTCTAACCTGTTGCGT (site GTCCGTCCTAA)"
  labelClass: "no"
- sequenceText: "CAGCCTTCTTGGGTTCTAACCTGTTGCTT (site CAGCCTTCTAA)"
  labelClass: "yes"
- sequenceText: "GGGGACCCTTGGGTTCTAACCTGTTGCGA (site GGGGACCCTCC)"
  labelClass: "yes"
- sequenceText: "TACAGTTCTTGGGTTCTAACCTGTTGCTT (site TACAGTTCTAA)"
  labelClass: "no"
- sequenceText: "AGTTTCACTTGGGTTCTAACCTGTTGCCT (site AGTTGCACTAG)"
  labelClass: "no"
- sequenceText: "ATTACTTCTTGGGTTCTAACCTGTTGCTT (site ATTACTTCTAA)"
  labelClass: "yes"
- sequenceText: "GTGTGTTCTTGGGTTCTAACCTGTTGCCA (site GTGTGTTCTTG)"
  labelClass: "yes"
- sequenceText: "TAGAAGTCTTGGGTTCTAACCTGTTGCTG (site AAGATGTCTCA)"
  labelClass: "no"
- sequenceText: "AAGGCCTCTTGGGTTCTAACCTGTTGCAT (site AAGGCCTCTAT)"
  labelClass: "yes"
- sequenceText: "AGTTCCACTTGGGTTCTAACCTGTTGCCT (site AGTTACACTAG)"
  labelClass: "no"

----------
Assay: recombinant UMI read abundance after kanamycin selection (control-corrected) (log10(CPM+1)); higher = more efficient recombination; extreme values may be limits of the assay; sequences stand for … in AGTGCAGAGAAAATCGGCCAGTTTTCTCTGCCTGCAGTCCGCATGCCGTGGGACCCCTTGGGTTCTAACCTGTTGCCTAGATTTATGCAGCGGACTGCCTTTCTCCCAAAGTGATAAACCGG…AGGTTGGTTTCACT; site = the 11-nt donor
Known recombinant UMI read abundance (log10) of a selection of sequences

- sequenceText: "CGGAGAGCATGGACCGGTTTTCCCGGTAATCCGTATTTGAA (site CGGAGAGCTTT)"
  recombinant UMI read abundance (log10): 2.27
- sequenceText: "CCCAAGCCATGGACCGGTTTTCCCGGTAATCCGTATTTGCC (site CCCAAGCCTGG)"
  recombinant UMI read abundance (log10): 0
- sequenceText: "TGTACACCATGGACCGGTTTTCCCGGTAATCCGTATTTGAC (site TGGACACCTGT)"
  recombinant UMI read abundance (log10): 0.00576
- sequenceText: "TAGCCTTCATGGACCGGTTTTCCCGGTAATCCGTATTTGGT (site CAGCCTTCTAC)"
  recombinant UMI read abundance (log10): 0.00723
- sequenceText: "CCTTGACCATGGACCGGTTTTCCCGGTAATCCGTATTTGAG (site CCTTGACCTCT)"
  recombinant UMI read abundance (log10): 0.0135
- sequenceText: "TGGCCGCCATGGACCGGTTTTCCCGGTAATCCGTATTTGGC (site TGGCCGGCTGC)"
  recombinant UMI read abundance (log10): 0
- sequenceText: "ACTAGTACATGGACCGGTTTTCCCGGTAATCCGTATTTGGT (site ACTAGTGCTAC)"
  recombinant UMI read abundance (log10): 0.181
- sequenceText: "GAACTCACATGGACCGGTTTTCCCGGTAATCCGTATTTGCT (site GAACTCACTAG)"
  recombinant UMI read abundance (log10): 2.53
- sequenceText: "GGCAGTCCATGGACCGGTTTTCCCGGTAATCCGTATTTGAA (site GGCACTCCTTT)"
  recombinant UMI read abundance (log10): 0.018

----------
Assay: recombinant barcode read abundance after kanamycin selection (control-corrected) (log10(CPM+1)); higher = more efficient recombination; sequences stand for … in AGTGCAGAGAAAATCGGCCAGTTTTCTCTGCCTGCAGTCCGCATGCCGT…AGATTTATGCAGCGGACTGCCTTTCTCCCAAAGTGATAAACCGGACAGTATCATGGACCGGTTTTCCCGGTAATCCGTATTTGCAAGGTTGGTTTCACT; site = the 11-nt target
Each record gets a class by recombinant barcode read abundance (log10): range A = under 0.3, range B = from 0.3 up to 0.5, range C = 0.5 and over

- sequenceText: "GATGAGTCTTGGGTTCTAACCTGTTGCTT (site GATGAGTCTAA)"
  labelClass: "range C"
- sequenceText: "CGTTCTACTTGGGTTCTAACCTGTTGCCT (site CGTTCCACTAG)"
  labelClass: "range A"
- sequenceText: "GAGTGAGCTTGGGTTCTAACCTGTTGCAT (site GAGAGAGCTAT)"
  labelClass: "range C"
- sequenceText: "GGTCACCCTTGGGTTCTAACCTGTTGCGG (site GGTCACCCTCC)"
  labelClass: "range C"
- sequenceText: "GTACTCTCTTGGGTTCTAACCTGTTGCCA (site GAACTGTCTTG)"
  labelClass: "range A"
- sequenceText: "TATTATACTTGGGTTCTAACCTGTTGCCT (site TATTATACTAG)"
  labelClass: "range A"
- sequenceText: "TAACTTACTTGGGTTCTAACCTGTTGCAT (site TAACTTACTAT)"
  labelClass: "range B"
- sequenceText: "CGAAGATCTTGGGTTCTAACCTGTTGCCT (site CAAAGATCTAG)"
  labelClass: "range A"
- sequenceText: "AGTAGGACTTGGGTTCTAACCTGTTGCAG (site AGCAGGGCTCT)"
  labelClass: "range B"

Values were extracted from the supplement of paper PMC11208160.
